pEC50 by entry:
assayed target: T1, human TIGIT expressed on CHO-K1 cells (human, UniProt Q495A1 22-244)
T1 construct: whole, on cells; also called human TIGIT-CHO-K1 cells; human TIGIT over-expressing cell line
T1 sequence (looked up): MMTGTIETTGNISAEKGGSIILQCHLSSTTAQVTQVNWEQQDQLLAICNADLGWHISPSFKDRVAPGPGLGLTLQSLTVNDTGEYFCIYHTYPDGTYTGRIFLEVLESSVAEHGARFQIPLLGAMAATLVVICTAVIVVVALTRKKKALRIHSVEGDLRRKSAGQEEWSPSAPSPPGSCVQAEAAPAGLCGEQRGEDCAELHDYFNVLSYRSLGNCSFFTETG
experiment: flow cytometry on CHO-K1 cells expressing human TIGIT
Please treat pEC50 as minus the base-10 logarithm of the molar concentration.

>>> observed_value("TIGIT-19 chimeric antibody (antibody, human IgG1, kappa, V domains shown, also called 19VH + 19VL) VH: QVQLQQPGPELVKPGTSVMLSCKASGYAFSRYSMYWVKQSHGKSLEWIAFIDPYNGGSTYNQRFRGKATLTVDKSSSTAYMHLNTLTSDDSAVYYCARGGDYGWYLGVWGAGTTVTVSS VL: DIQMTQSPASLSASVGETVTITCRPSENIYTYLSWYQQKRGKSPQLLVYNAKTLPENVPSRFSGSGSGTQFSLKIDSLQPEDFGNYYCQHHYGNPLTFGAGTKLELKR")
9.51

Let us move to another entry and its pEC50.
Query: Query (binder): TIGIT-6 chimeric antibody (antibody, human IgG1, kappa, V domains shown, also called 6VH + 6VL) VH: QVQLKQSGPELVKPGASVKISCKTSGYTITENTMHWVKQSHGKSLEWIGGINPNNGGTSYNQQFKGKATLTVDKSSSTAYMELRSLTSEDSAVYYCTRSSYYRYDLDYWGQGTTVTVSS VL: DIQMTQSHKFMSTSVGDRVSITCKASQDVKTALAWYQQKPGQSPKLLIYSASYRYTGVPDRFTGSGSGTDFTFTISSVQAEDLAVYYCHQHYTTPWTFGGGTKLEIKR ; field requested: pEC50
Reply: 9.24
